SYSTEM_UNDER_TEST: HLA-B*15:01
TEST_PROTOCOL: IEDB peptide-MHC binding, purified MHC/direct/fluorescence; filed as Kd, often an IC50 or EC50 that approximates it; bounds were set here for any values at or beyond the usual limits of such assays
TEST_CONTEXT: source organism: Bacillus cereus H3081.97
pKd: −log10 of the molar value.
QUANTITY_MEASURED: pKd

Look at this sequence and give its reported pKd. `YSTVRDLFL` ≤ 4.70

---

SYSTEM_UNDER_TEST: HLA-B*15:01
TEST_PROTOCOL: IEDB peptide-MHC binding, purified MHC/direct/fluorescence; filed as Kd, often an IC50 or EC50 that approximates it; bounds were set here for any values at or beyond the usual limits of such assays
TEST_CONTEXT: source organism: Vibrio cholerae
QUANTITY_MEASURED: Kd

Look at this sequence and give its reported Kd. `AENKKFKLH` ≥ 20 µM

---

SYSTEM_UNDER_TEST: HLA-A*02:16
TEST_PROTOCOL: IEDB peptide-MHC binding, purified MHC/competitive/fluorescence; filed as Kd, often an IC50 or EC50 that approximates it; bounds were set here for any values at or beyond the usual limits of such assays
TEST_CONTEXT: source organism: Entamoeba histolytica HM-1:IMSS
pKd: −log10 of the molar value.
QUANTITY_MEASURED: pKd

Look at this sequence and give its reported pKd. `KTFEWGVFY` ≤ 4.70

---

Please go through the items and note down their pKd.
SYSTEM_UNDER_TEST: HLA-A*24:03
TEST_PROTOCOL: IEDB peptide-MHC binding, purified MHC/direct/fluorescence; filed as Kd, often an IC50 or EC50 that approximates it; bounds were set here for any values at or beyond the usual limits of such assays
TEST_CONTEXT: source organism: Amur virus
Answers are plain numbers, as −log10 of the molar value.

- CIIGTVSKF: 7.31

Turning now to a further sequence:
Look at this sequence and give its reported pKd. `ESPSSIWVF` 5.91

---

SYSTEM_UNDER_TEST: HLA-B*57:01
TEST_PROTOCOL: IEDB peptide-MHC binding, purified MHC/direct/fluorescence; filed as Kd, often an IC50 or EC50 that approximates it; bounds were set here for any values at or beyond the usual limits of such assays
TEST_CONTEXT: source organism: Lassa virus Josiah
pKd: −log10 of the molar value.
QUANTITY_MEASURED: pKd

Look at this sequence and give its reported pKd. `NHYLCLNCL` ≤ 4.70

---

SYSTEM_UNDER_TEST: HLA-B*58:01
TEST_PROTOCOL: IEDB peptide-MHC binding, purified MHC/direct/fluorescence; filed as Kd, often an IC50 or EC50 that approximates it; bounds were set here for any values at or beyond the usual limits of such assays
TEST_CONTEXT: source organism: Rickettsia conorii
QUANTITY_MEASURED: Kd (nM)
Give bare numbers, in nM.

Look at this sequence and give its reported Kd. `SSSGMDAYY` 216

---

SYSTEM_UNDER_TEST: HLA-A*31:01
TEST_PROTOCOL: IEDB peptide-MHC binding, purified MHC/direct/fluorescence; filed as Kd, often an IC50 or EC50 that approximates it; bounds were set here for any values at or beyond the usual limits of such assays
TEST_CONTEXT: source organism: Rickettsia prowazekii
QUANTITY_MEASURED: pKd
One number for each entry, as −log10 of the molar value.

Look at this sequence and give its reported pKd. `VVNYDNSTK` 5.26

---

SYSTEM_UNDER_TEST: HLA-B*45:01
TEST_PROTOCOL: IEDB peptide-MHC binding, purified MHC/competitive/radioactivity; filed as Kd, often an IC50 or EC50 that approximates it; bounds were set here for any values at or beyond the usual limits of such assays
TEST_CONTEXT: source organism: Mammarenavirus whitewaterense
QUANTITY_MEASURED: Kd

Look at this sequence and give its reported Kd. `LDIQKCGEL` ≥ 56.9 µM

---

SYSTEM_UNDER_TEST: HLA-A*02:19
TEST_PROTOCOL: IEDB peptide-MHC binding, purified MHC/competitive/fluorescence; filed as Kd, often an IC50 or EC50 that approximates it; bounds were set here for any values at or beyond the usual limits of such assays
TEST_CONTEXT: source organism: Human immunodeficiency virus 1
Please go through the items and note down their pKd.
Give bare numbers, as −log10 of the molar value.

Answered examples (2):
- NLGQHIYET: 6.84
- DLADQLIHL: 7.37

Write down the reported pKd of `ELADQLIHL` , test system: HLA-A*02:19. 8.17

---

SYSTEM_UNDER_TEST: HLA-B*58:01
TEST_PROTOCOL: IEDB peptide-MHC binding, purified MHC/competitive/fluorescence; filed as Kd, often an IC50 or EC50 that approximates it; bounds were set here for any values at or beyond the usual limits of such assays
TEST_CONTEXT: source organism: Lechiguanas virus
QUANTITY_MEASURED: pKd
Numbers only, as −log10 of the molar value.

Look at this sequence and give its reported pKd. `HTQAIEGAW` 8.89

---

SYSTEM_UNDER_TEST: HLA-B*15:42
TEST_PROTOCOL: IEDB peptide-MHC binding, purified MHC/competitive/fluorescence; filed as Kd, often an IC50 or EC50 that approximates it; bounds were set here for any values at or beyond the usual limits of such assays
TEST_CONTEXT: source organism: Mycobacterium tuberculosis CDC1551
pKd: −log10 of the molar value.
QUANTITY_MEASURED: pKd

Look at this sequence and give its reported pKd. `RPREATIIY` ≤ 5.30

---

SYSTEM_UNDER_TEST: HLA-B*40:01
TEST_PROTOCOL: IEDB peptide-MHC binding, purified MHC/direct/fluorescence; filed as Kd, often an IC50 or EC50 that approximates it; bounds were set here for any values at or beyond the usual limits of such assays
TEST_CONTEXT: source organism: Histophilus somni
pKd: −log10 of the molar value.
QUANTITY_MEASURED: pKd

Write down the reported pKd of `QYPAFVLFI` , test system: HLA-B*40:01. ≤ 4.70

---

SYSTEM_UNDER_TEST: HLA-A*03:01
TEST_PROTOCOL: IEDB peptide-MHC binding, purified MHC/direct/fluorescence; filed as Kd, often an IC50 or EC50 that approximates it; bounds were set here for any values at or beyond the usual limits of such assays
TEST_CONTEXT: source organism: Reston ebolavirus - Reston
QUANTITY_MEASURED: Kd (nM)
Answers are plain numbers, in nM.

Look at this sequence and give its reported Kd. `ALYEENALK` 1840

---

SYSTEM_UNDER_TEST: HLA-A*31:01
TEST_PROTOCOL: IEDB peptide-MHC binding, purified MHC/direct/fluorescence; filed as Kd, often an IC50 or EC50 that approximates it; bounds were set here for any values at or beyond the usual limits of such assays
TEST_CONTEXT: source organism: Rickettsia conorii
pKd: −log10 of the molar value.
QUANTITY_MEASURED: pKd

Look at this sequence and give its reported pKd. `SSSGMDAYY` ≤ 4.70

---

SYSTEM_UNDER_TEST: HLA-A*03:01
TEST_PROTOCOL: IEDB peptide-MHC binding, purified MHC/competitive/fluorescence; filed as Kd, often an IC50 or EC50 that approximates it; bounds were set here for any values at or beyond the usual limits of such assays
TEST_CONTEXT: source organism: Escherichia coli O157:H7 str. Sakai
QUANTITY_MEASURED: Kd (µM)
One number for each entry, in µM.

Write down the reported Kd of `GSQYVSLAY` , test system: HLA-A*03:01. 4.5

---

SYSTEM_UNDER_TEST: HLA-A*26:01
TEST_PROTOCOL: IEDB peptide-MHC binding, purified MHC/competitive/radioactivity; filed as Kd, often an IC50 or EC50 that approximates it; bounds were set here for any values at or beyond the usual limits of such assays
TEST_CONTEXT: source organism: Mammarenavirus whitewaterense
QUANTITY_MEASURED: Kd

Look at this sequence and give its reported Kd. `WDIKDPSLL` ≥ 77.9 µM

---

SYSTEM_UNDER_TEST: HLA-A*24:02
TEST_PROTOCOL: IEDB peptide-MHC binding, purified MHC/competitive/radioactivity; filed as Kd, often an IC50 or EC50 that approximates it; bounds were set here for any values at or beyond the usual limits of such assays
TEST_CONTEXT: source organism: Mammarenavirus whitewaterense
pKd: −log10 of the molar value.
QUANTITY_MEASURED: pKd

Look at this sequence and give its reported pKd. `WDIKDPSLL` ≤ 4.11

---

SYSTEM_UNDER_TEST: HLA-B*58:01
TEST_PROTOCOL: IEDB peptide-MHC binding, purified MHC/direct/fluorescence; filed as Kd, often an IC50 or EC50 that approximates it; bounds were set here for any values at or beyond the usual limits of such assays
TEST_CONTEXT: source organism: Homo sapiens
QUANTITY_MEASURED: Kd (µM)
Give bare numbers, in µM.

• YTAVVPLVY = 0.0631

Turning now to a further sequence:
Look at this sequence and give its reported Kd. `DPSGAYFAW` 1.57
